target: histamine H2 receptors (Cavia porcellus); construct: Excised right atrium of Hartley male guinea pigs; from tissue; host or cells: isolated right atrium of male Hartley guinea pigs; assay: Antagonistic action against histamine H2 receptors (isolated right atrium); parameters: species or system Hartley male guinea pigs; conditions: guinea pig isolated right atrium, 30° C.; concentration for two-fold shift of the histamine dose-response curve; read-out: Antagonistic action against histamine H2 receptors, pA2 (converted)
Sequence (P47747 whole entry): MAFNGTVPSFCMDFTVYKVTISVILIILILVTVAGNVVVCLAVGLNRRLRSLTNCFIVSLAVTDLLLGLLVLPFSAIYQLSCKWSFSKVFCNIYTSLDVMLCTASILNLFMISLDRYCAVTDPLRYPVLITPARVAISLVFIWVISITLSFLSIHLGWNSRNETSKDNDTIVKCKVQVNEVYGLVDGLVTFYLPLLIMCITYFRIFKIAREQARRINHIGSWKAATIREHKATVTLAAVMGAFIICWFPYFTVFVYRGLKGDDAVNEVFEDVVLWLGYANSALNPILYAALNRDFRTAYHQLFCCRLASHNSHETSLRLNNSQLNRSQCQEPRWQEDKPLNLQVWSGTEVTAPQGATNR
# note: boundary value 100 nM maps to f; Kb below it maps to t

>>> df
                                     smiles  group_label
0  COc1cc(CCCC(=O)NCCCOc2cccc(CN3CCCCC3)c2)ccc1O            t
1  CC(C)(C)c1cc(CCCCC(=O)NCCCOc2cccc(CN3CCCCC3)c2)cc(C(C)(C)C)c1O            f
2  O=C(CCCCc1ccc(O)c(O)c1)NCCCOc1cccc(CN2CCCCC2)c1            f
3  COc1cc(CCCCC(=O)NCCCOc2cccc(CN3CCCCC3)c2)cc(OC)c1O            f
4  COc1cc(CCC(=O)NCCCOc2cccc(CN3CCCCC3)c2)ccc1O            f
5  O=C(CCCCc1ccc(O)cc1)NCCCOc1cccc(CN2CCCCC2)c1            f
6  COc1cc(CCCCC(=O)NCCCOc2cccc(CN3CCCCC3)c2)ccc1O            t
